Values from patent US8163929B2

# SUBJECT_OF_TEST: P2X7 (UniProt Q99572)
# PROTOCOL_SUMMARY: P2X7 activity of Table 1
# Format: cell-based
# CONDITION: pIC50 values for P2X7
# Protocol: Stock solutions of compounds were prepared from powders as a 10 mM DMSO stock solution. These solutions were stored at RT during the two week period of these experiments to prevent freeze-thaw of the DMSO stocks. The DMSO stocks were added to the appropriate assay buffer at a concentration of 10 μM, and then diluted serially to the final concentrations that were tested. […]
In this section, each of the molecules is paired with its reported pIC50.
RESULT_TYPE: pIC50

{"SMILES_DATA": "Cc1ccc(-n2ncc(=O)n(CCO)c2=O)cc1NC(=O)C1=CN(C)C(=O)C[C@H]1c1cccc(F)c1", "SUBJECT_OF_TEST": "P2X7 (UniProt Q99572)", "OBSERVED": 7.57}
{"SMILES_DATA": "Cc1cc(-c2cccc(NC(=O)C3=CNC(=O)C[C@H]3c3ccc(F)cc3)c2)nn1C", "SUBJECT_OF_TEST": "P2X7 (UniProt Q99572)", "OBSERVED": 5.72}
{"SMILES_DATA": "Cc1ccc(-c2ccn(CCO)n2)cc1NC(=O)C1=CN(C)C(=O)C[C@H]1c1cccc(F)c1", "SUBJECT_OF_TEST": "P2X7 (UniProt Q99572)", "OBSERVED": 7.645}
{"SMILES_DATA": "Cc1ccc(-c2cc(C)n(C[C@H](O)CO)n2)cc1NC(=O)C1=CN(C)C(=O)C[C@H]1c1ccc(F)cc1", "SUBJECT_OF_TEST": "P2X7 (UniProt Q99572)", "OBSERVED": 7.255}
{"SMILES_DATA": "Cc1ccc(-c2cc(C)n(CCO)n2)cc1NC(=O)C1=CN(C)C(=O)C[C@H]1c1cccc(F)c1", "SUBJECT_OF_TEST": "P2X7 (UniProt Q99572)", "OBSERVED": 7.72}
